Experiment: Phase 1 drug-drug interaction study, plasma pharmacokinetics of dorzagliatin and sitagliptin
Assay type: in vivo, human
Conditions: human, plasma, oral; T2DM subjects; dorzagliatin 75 mg BID in combination with sitagliptin 100 mg QD (Day 10); read-out: Least squares geometric mean Cmax of plasma dorzagliatin
measured.metric: Cmax

input: Any idea what Cmax was measured for "CC(C)C[C@@H](C(=O)Nc1ccn(C[C@@H](O)CO)n1)N1CC(Oc2ccccc2Cl)=CC1=O" ?
output: 0.833 µg/mL
